- target.entity: Muscarinic acetylcholine receptor M3 (Homo sapiens) (UniProt P20309)
- Sequence (P20309 whole entry, looked up): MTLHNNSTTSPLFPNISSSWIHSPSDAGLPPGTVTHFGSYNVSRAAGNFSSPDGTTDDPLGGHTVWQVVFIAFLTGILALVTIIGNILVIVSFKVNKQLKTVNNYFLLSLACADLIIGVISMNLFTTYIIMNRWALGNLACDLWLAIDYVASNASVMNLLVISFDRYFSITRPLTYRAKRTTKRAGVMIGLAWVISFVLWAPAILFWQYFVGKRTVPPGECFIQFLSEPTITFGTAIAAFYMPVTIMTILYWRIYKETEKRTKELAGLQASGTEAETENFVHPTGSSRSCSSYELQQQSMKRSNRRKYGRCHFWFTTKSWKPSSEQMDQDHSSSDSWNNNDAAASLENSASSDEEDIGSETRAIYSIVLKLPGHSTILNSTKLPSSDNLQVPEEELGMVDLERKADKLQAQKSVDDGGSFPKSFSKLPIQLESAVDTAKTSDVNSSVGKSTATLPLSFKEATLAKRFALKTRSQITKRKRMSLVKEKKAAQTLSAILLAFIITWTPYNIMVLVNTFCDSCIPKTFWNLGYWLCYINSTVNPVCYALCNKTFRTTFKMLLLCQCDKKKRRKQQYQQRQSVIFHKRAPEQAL
- assay.setup: Compound concentration 10 µM
- Description: PDSP Primary Binding target: CHRM3 - Compounds are tested at 10 uM concentration, plate are incubated at room temperature in the dark for 90 minutes. Reaction are stopped by vacuum filtration onto 0.3% polyethyleneimine soaked filter mats using Filtermate harvester. Scintilation cocktail is then melted onto microwave-dried filters on a hot plate and the radio activity is counted in Microbia counter.
Collected inhibition values appear next to each entry.
Supply the numeric figure in %, leaving out any unit text.

Solved entries:
• O=C(O)CC1CCC2(CC1)CCN(c1cc(OC(F)(F)F)ccc1Cl)CC2 = -5.1
• CN[C@@H]1CCc2[nH]c3ccc(C(N)=O)cc3c2C1 = 15.7
• Cc1c(C2=CCN(C(=O)N(C)C(C)C)CC2)nnn1-c1cccnc1F = 1.95
• Cc1c(OCc2cccc(-c3ccc(C(=O)O)cc3)c2)cc2c(c1C)C(=O)C(C1CCCC1)C2 (centres undefined) = 34.5
• CS(=O)(=O)NC[C@H]1CC[C@H](Nc2nc3c(s2)CCSc2ccccc2-3)CC1 = -7.8

Enquiry: Given the entry CN(C(=O)Cc1ccc(Cl)c(Cl)c1)C(CN1CCCC1)c1cccc(OCC(=O)O)c1 (centres undefined) , what inhibition was observed with Muscarinic acetylcholine receptor M3 (Homo sapiens) (UniProt P20309)?
Return: 9.38

Enquiry: What about `FC(F)(F)c1c(N2CCC(c3ccccc3)CC2)ccn2c(CC3CC3)nnc12` ?
Return: -8.34

Enquiry: Queued: `Cc1ccc2c(c1)c1c(n2CCc2ccc(C)nc2)CCN(C)C1`
Return: 18

---

- target.entity: D(1A) dopamine receptor (Homo sapiens) (UniProt P21728)
- Sequence (P21728 whole entry): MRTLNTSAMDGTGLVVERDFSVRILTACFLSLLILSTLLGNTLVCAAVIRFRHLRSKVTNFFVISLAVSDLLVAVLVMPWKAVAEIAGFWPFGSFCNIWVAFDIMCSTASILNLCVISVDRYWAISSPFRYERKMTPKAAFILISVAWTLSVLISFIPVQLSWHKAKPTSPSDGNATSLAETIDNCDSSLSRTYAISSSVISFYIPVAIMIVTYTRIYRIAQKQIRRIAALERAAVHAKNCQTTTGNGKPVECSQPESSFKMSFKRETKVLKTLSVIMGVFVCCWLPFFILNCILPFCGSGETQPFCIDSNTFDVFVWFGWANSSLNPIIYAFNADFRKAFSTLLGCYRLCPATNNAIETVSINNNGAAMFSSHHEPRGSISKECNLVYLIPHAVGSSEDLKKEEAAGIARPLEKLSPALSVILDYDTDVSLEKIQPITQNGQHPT
- assay.setup: Compound concentration 10 µM
- Description: PDSP Primary Binding target: DRD1 - Compounds are tested at 10 uM concentration, plate are incubated at room temperature in the dark for 90 minutes. Reaction are stopped by vacuum filtration onto 0.3% polyethyleneimine soaked filter mats using Filtermate harvester. Scintilation cocktail is then melted onto microwave-dried filters on a hot plate and the radio activity is counted in Microbia counter.
Listed here: items and their measured inhibition.
I only need the number, in %, no unit after it.

* O=C(O)Cn1c(C(=O)Nc2nc(-c3ccccc3Cl)cs2)cc2ccccc21 | -2.06

Enquiry: // inhibition lookup, key: CN1C2CCC1CC(OC(c1ccc(F)cc1)c1ccc(F)cc1)C2 (centres undefined)
Return: 83

Enquiry: Now this one: `CCCn1c(=O)c2[nH]c(-c3cnn(Cc4cccc(C(F)(F)F)c4)c3)nc2n(CC)c1=O`
Return: 5.66

Enquiry: Further, for `C[C@]1(C(=O)N(CCCC(=O)O)Cc2cccc(Cl)c2)CCN1C(=O)c1csc2ccccc12` ?
Return: -1.97

Enquiry: Same thing, different compound: `Cc1nc(-c2ccc(-c3ccc(C(=O)N4CCc5cc6c(cc54)C4(CCN(C)CC4)CO6)cc3)c(C)c2)no1`
Return: 53.5

Enquiry: What would you report for `Cc1cc(NC(=O)NCCN2CCC(O)(Cc3ccccc3)CC2)c2ccccc2n1` ?
Return: 10.7

Enquiry: And for `CCOC(=O)c1cc(C#N)c(N2CCC(C(=O)NS(=O)(=O)Cc3ccccc3)CC2)nc1C` ?
Return: 0.26

Enquiry: Subsequent entry: `Cc1cn2cc(CC(=O)N3CCC4(CC3)CN(Cc3ccc(-n5nccn5)cc3Cl)C4)nc2s1`
Return: -5.26

Enquiry: Then what about the compound `O=C(Nc1ccc(Cl)cc1)Nc1cccc(-c2cccc(N3CCCC3)n2)c1` ?
Return: 6.95

---

- target.entity: 5-hydroxytryptamine receptor 2C (Homo sapiens) (UniProt P28335)
- Sequence (P28335 whole entry): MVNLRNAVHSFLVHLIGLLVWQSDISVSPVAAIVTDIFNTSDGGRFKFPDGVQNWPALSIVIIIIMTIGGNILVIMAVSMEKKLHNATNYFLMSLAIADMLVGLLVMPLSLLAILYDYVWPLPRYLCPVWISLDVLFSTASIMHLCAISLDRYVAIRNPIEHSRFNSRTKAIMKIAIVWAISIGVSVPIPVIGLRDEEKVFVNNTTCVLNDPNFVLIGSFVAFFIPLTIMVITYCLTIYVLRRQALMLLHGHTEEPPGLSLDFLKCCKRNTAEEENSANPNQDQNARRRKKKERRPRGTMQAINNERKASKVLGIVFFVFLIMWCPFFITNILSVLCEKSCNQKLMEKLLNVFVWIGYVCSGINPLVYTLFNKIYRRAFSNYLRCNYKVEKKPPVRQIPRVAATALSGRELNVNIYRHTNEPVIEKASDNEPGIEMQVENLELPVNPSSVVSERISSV
- assay.setup: Compound concentration 10 µM; call rule not given here
The categories you may choose from are active, inactive

* C/C(=N\NC(=O)[C@@H]1C(=O)NC[C@H]1c1ccccc1)c1cccc(Br)c1 | inactive
* Brc1c(NC2=NCCN2)ccc2nccnc12 | inactive
* S=C(NCCCc1c[nH]cn1)NCCCN(Cc1ccc(Cl)c(Cl)c1)c1ccc(Br)cn1 | active

Enquiry: In this assay, the call recorded for `CCCCCNC(=O)NS(=O)(=O)c1cc([N+](=O)[O-])ccc1NC1CCCCC1` was what?
Return: inactive

Enquiry: Ok, now `CCc1ccc(OCc2ccccc2C(=O)Nc2ccc3nc(C)cc(N)c3c2)cc1`
Return: active

Enquiry: One more compound: `COc1cccc([C@@H](C)NCCCc2ccccc2Cl)c1`
Return: active

Enquiry: Do the same for `Cc1cc(C(=O)N2Cc3cnn(C)c3Nc3ccccc32)ccc1CNC(=O)N1CCC[C@H]1C(=S)N1CCCN(C)CC1` please
Return: inactive

Enquiry: Try `CCCCCCCCCCCCC/C=C/[C@@H](O)[C@@H](N)COP(=O)(O)O` next.
Return: inactive

Enquiry: Another compound to check: `Cc1csc(NC(=O)c2cc(F)cc(Oc3cncnc3)c2)n1`
Return: inactive

Enquiry: Now the compound `Clc1cccc(Cl)c1NC1=NCCN1`
Return: active
